src = the supplement of paper PMC12338614

B1: library; numbered along this chain (parent)
chain: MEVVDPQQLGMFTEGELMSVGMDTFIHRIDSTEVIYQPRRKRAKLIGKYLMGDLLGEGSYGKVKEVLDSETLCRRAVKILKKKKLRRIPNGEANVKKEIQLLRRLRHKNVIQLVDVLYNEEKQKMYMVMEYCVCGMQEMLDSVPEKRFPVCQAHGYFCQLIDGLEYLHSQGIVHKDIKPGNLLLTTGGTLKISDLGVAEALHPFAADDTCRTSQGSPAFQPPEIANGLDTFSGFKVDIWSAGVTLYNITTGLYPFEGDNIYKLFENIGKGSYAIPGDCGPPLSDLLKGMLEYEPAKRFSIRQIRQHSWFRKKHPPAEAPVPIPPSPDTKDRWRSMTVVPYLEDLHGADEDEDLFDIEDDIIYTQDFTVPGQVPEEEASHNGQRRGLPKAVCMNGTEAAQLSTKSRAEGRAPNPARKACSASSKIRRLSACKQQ

Variants of: B1
Assay: STK11 functional score (HeLa growth suppression), rescaled enrichment; synonymous median = 1, nonsense median = 0 (normalised score)
Details: with HeLa; variant type: missense
Each record's class is read off its STK11 functional score using these ranges: range A (below 0.5), range B (0.5 to below 1), range C (1 or more)

Categorize the following entry: R86L
range B

# repeat for H174N
range A

# repeat for G242R
range A

# repeat for A406D
range C

# repeat for R384S
range C

# repeat for H154S
range A

# repeat for L113S
range B

# repeat for Q123F
range B

# repeat for L286G
range A

# repeat for E374C
range C

# repeat for D352E
range C
